Values from patent US20260015363A1

# Test system: AsPC-1 (G12D)
# assay-name: KRAS mutant cell proliferation inhibition assay (CellTiter-Glo 3D), AsPC-1
# Assay type: cell-based, human
# condition: Homo sapiens, ASPC1, 168 h, AsPC-1 (G12D) cells, 7 days
# Protocol: Positive control: MRTX1133 • (a) The cells were thawed in T75 cell culture flasks: • (b) When 80%-90% cell confluence was achieved, the cells were passaged. The diluted test compound was added to a 384-well cell culture plate using a nanoliter pipetting system, and replicate wells were set. […] CellTiter-Glo® 3D was added to b) 384-well cell culture plate at 20 μL/well. […] The luminescence values were read using an Envision multi-mode microplate reader. […]
readout-label: IC50 (nM)
The reply should be a number in nM, with the unit left off.

compound: Nc1cc(Cl)c(C(F)(F)F)c(-c2ncc3c(N4CCCC5(CCO5)C4)nc(OC[C@@]45CCCN4C[C@@]4(CC4(F)F)C5)nc3c2F)c1 (stereo partly shown)
experimental-target: AsPC-1 (G12D)
readout-label: IC50
test-value: 61.1

compound: C#Cc1c(F)ccc2cc(O)cc(-c3ncc4c(N5CCCC6(CCO6)C5)nc(OC[C@@]56CCCN5C[C@@]5(CC5(F)F)C6)nc4c3F)c12 (stereo partly shown)
experimental-target: AsPC-1 (G12D)
readout-label: IC50
test-value: 164

compound: CCc1c(F)ccc2cc(O)cc(-c3ncc4c(N5CCCOC6CC65)nc(OC[C@@]56CCCN5C[C@@]5(CC5(F)F)C6)nc4c3F)c12 (stereo partly shown)
experimental-target: AsPC-1 (G12D)
readout-label: IC50
test-value: 27.6

compound: CCc1c(F)ccc2cc(O)cc(-c3ncc4c(N5CCC6CCC(C5)O6)nc(OC[C@@]56CCCN5C[C@@]5(CC5(F)F)C6)nc4c3F)c12 (stereo partly shown)
experimental-target: AsPC-1 (G12D)
readout-label: IC50
test-value: 736

Req: Given the entry CCc1c(F)ccc2cc(O)cc(-c3ncc4c(N5CCOCC(C)(O)C5)nc(OC[C@@]56CCCN5C[C@@]5(CC5(F)F)C6)nc4c3F)c12 (stereo partly shown) , what IC50 was observed with AsPC-1 (G12D)?
Resp: 31.6

Req: Given the entry CN(c1nc(OC[C@@]23CCCN2C[C@@]2(CC2(F)F)C3)nc2c(F)c(-c3cc(N)cc(Cl)c3C(F)(F)F)ncc12)[C@H]1C[C@@H]1F , what IC50 was observed with AsPC-1 (G12D)?
Resp: 732
